# STUDY SYSTEM: Bile acid receptor (Homo sapiens)
# ASSAY: qHTS assay to identify small molecule agonists of the farnesoid-X-receptor (FXR) signaling pathway (AID 743220)
# CONDITION SUMMARY: HEK293T FXR-UAS-bla, beta-lactamase FRET ratio, 16 h; series mostly up to 62.6 µM
Records with an inconclusive call do not appear. Active and inactive are the calls of the source. Calls follow the shape of the dose curve; as a rule, active = well fitted activation curve with a large enough effect in the signal ratio in the repeat runs (not every such curve was filed as active); inconclusive = weak or mixed curves, or effect the other way; inactive = flat fitted curve, though single readings scatter; the % refers to the signal ratio.
MEASURED PARAMETER: outcome

Some solved entries appear below for comparison.
C=CCN1CC[C@]23c4c5ccc(O)c4O[C@H]2C(=O)CC[C@@]3(O)[C@H]1C5 :: inactive
CC(Cl)Cl :: inactive
CN(N=O)c1ccc([N+](=O)[O-])cc1 :: inactive
Cc1ccc(N)cc1C :: inactive
C=CC(=O)OC :: inactive
O=Cc1ccc2c(c1)OCO2 :: inactive
CCOP(=S)(OCC)Oc1cc(Cl)c(Br)cc1Cl :: inactive
ClP(Cl)(Cl)(Cl)Cl :: inactive
C=CC(C)=O :: inactive
CC1(C)CCC(Cc2ccc(Cl)cc2)C1(O)Cn1cncn1 (stereo unspecified) :: inactive

outcome reported for this compound Cl/C=C\C[N+]12CN3CN(CN(C3)C1)C2 : inactive

outcome reported for this compound CO/C=C(/C(=O)OC)c1ccccc1COc1cccc(C(F)(F)F)n1 : inactive

outcome reported for this compound c1ccoc1 : inactive

====

# STUDY SYSTEM: Cytochrome P450 2C19 (Homo sapiens)
# ASSAY: Cytochrome P450 Family 2 Subfamily C Member 19 (CYP2C19) small molecule antagonists: luciferase reporter qHTS assay (AID 1671197); also: nearly all actives have a fitted effect of over 65% in size; also: potency is read from the fitted curve at half-maximal effect
# CONDITION SUMMARY: P450-Glo CYP2C19 enzyme, luciferin luminescence, 1 h; series mostly up to 115 µM
Results filed as inconclusive are left out. The source made the active and inactive calls. Calls come from the whole dose curve; as a rule, active = well fitted inhibition curve with a large enough effect in the repeat runs; inconclusive = weak or mixed curves; inactive = no such curve, though single readings can be large or run the other way.
MEASURED PARAMETER: Potency

Some solved entries appear below for comparison.
O=Cc1ccc(Cl)cc1Cl :: inactive
O=C(Nc1ccccc1)Nc1cnns1 :: 39.9 µM (active)
O=C(OC1CCCCC1)c1ccccc1C(=O)OC1CCCCC1 :: 33.4 µM (active)
CCCN(CCCl)c1c([N+](=O)[O-])cc(C(F)(F)F)cc1[N+](=O)[O-] :: 17.8 µM (active)

The value of Potency recorded for COc1cc(CC(C)N)cc2c1OCO2 (configuration not stated) when tested on Cytochrome P450 2C19 (Homo sapiens) reads inactive

The value of Potency recorded for CCOP(=S)(Oc1ccc([N+](=O)[O-])cc1)c1ccccc1 (configuration not stated) when tested on Cytochrome P450 2C19 (Homo sapiens) reads 0.159 µM (active)

The value of Potency recorded for O=C(CBr)c1ccccc1 when tested on Cytochrome P450 2C19 (Homo sapiens) reads 56.7 µM (active)

====

# ASSAY: qHTS assay for small molecule disruptors of the mitochondrial membrane potential - cell viability (AID 720634); also: nearly all actives have a fitted effect of over 20% in size
# CONDITION SUMMARY: HepG2 viability, ATP luminescence (CellTiter-Glo), 1 h; series mostly up to 83.2 µM
# Protocol: U.S. Tox21 Program National Center for Advancing Translational Sciences [NCATS] NIH Chemical Genomics Center [NCGC] U.S. Environmental Protection Agency [EPA] National Institutes of Environmental Health Sciences [NIEHS] National Toxicology Program [NTP] […] Measuring MMP in living cells is commonly used to assess the effect of chemicals on mitochondrial function; decreases in MMP can be detected using lipophilic cationic fluorescent dyes. […] The cytotoxicity was measured in the same assay well of MMP assay. […]
Results filed as inconclusive are left out. The source made the active and inactive calls. The call rests on the fitted dose curve.
Valid outcomes are listed here; reply with one: y for active, n for inactive

Below are worked cases with known answers.
CCOP(=S)(OCC)Oc1nc(Cl)c(Cl)cc1Cl :: y
CCCCNP(N)(N)=S :: n
CC(c1ccc(O)cc1)(c1ccc(O)cc1)c1ccc(O)cc1 :: n
CC(Cl)Cl :: n
Clc1cccc2ccccc12 :: n
COCCOCCO :: n

Ask: I'd appreciate the recorded outcome for O=C(O)COc1ccc(Cl)cc1 from this test.
Reply: n

Ask: I'd appreciate the recorded outcome for O=C1c2ccccc2C(=O)C1C(=O)C(c1ccccc1)c1ccccc1 from this test.
Reply: n

Ask: I'd appreciate the recorded outcome for CCOP(=O)(OCC)Oc1ccc([N+](=O)[O-])cc1 from this test.
Reply: n

Ask: I'd appreciate the recorded outcome for CN1C[C@H](CNC(=O)OCc2ccccc2)C[C@@H]2c3cccc4c3c(cn4C)C[C@H]21 from this test.
Reply: n

Ask: I'd appreciate the recorded outcome for Cn1cc[n+](C)c1 (tested in a mixture with another compound) from this test.
Reply: n

Ask: I'd appreciate the recorded outcome for CN1C(=O)C(O)N=C(c2ccccc2)c2cc(Cl)ccc21 (centres undefined) from this test.
Reply: n

Ask: I'd appreciate the recorded outcome for CC(C)(CCl)C(=O)Cl from this test.
Reply: n

Ask: I'd appreciate the recorded outcome for CC(=O)NC1CCSC1=O (centres undefined) from this test.
Reply: n

Ask: I'd appreciate the recorded outcome for COC1=CC(=O)O[C@@H](CCc2ccccc2)C1 from this test.
Reply: n

Ask: I'd appreciate the recorded outcome for CC(C)(OO)c1ccccc1 from this test.
Reply: n

Ask: I'd appreciate the recorded outcome for O=C(C(Cl)(Cl)Cl)C(Cl)(Cl)Cl from this test.
Reply: n

Ask: I'd appreciate the recorded outcome for COCC(C)N(C(=O)CCl)c1c(C)csc1C (centres undefined) from this test.
Reply: n

Ask: I'd appreciate the recorded outcome for OCCCBr from this test.
Reply: n

Ask: I'd appreciate the recorded outcome for BrCC(Br)C1CCC(Br)C(Br)C1 (centres undefined) from this test.
Reply: n

====

# ASSAY: A CellTox Green Cytotoxicity Assay to monitor cytotoxicity in HEK293 cells - 16 hour (AID 1224888); also: nearly all actives have a fitted effect of over 35% in size
# CONDITION SUMMARY: CellTox Green fluorescence; series mostly up to 76.8 µM
Results filed as inconclusive are left out. The source made the active and inactive calls. Calls come from the whole dose curve; as a rule, active = well fitted activation curve with a large enough effect in the repeat runs; inconclusive = weak or mixed curves; inactive = flat fitted curve, though single readings scatter.
MEASURED PARAMETER: activity change

COC(=O)C(C)N(C(=O)Cc1ccccc1)c1c(C)cccc1C (centres undefined) :: inactive
O=C(NC(=O)c1c(F)cccc1F)Nc1cc(Cl)c(Oc2ncc(C(F)(F)F)cc2Cl)c(Cl)c1 :: inactive
N#CCC#N :: inactive
CC(=O)NC1CCSC1=O (centres undefined) :: inactive

====

# ASSAY: Caspase-3/7 induction in HepG2 cells by small molecules, qHTS cell viability counter screen (AID 1346981); also: nearly all actives have a fitted effect of over 30% in size
# CONDITION SUMMARY: CellTiter-Fluor fluorescence, 17 h; series mostly up to 92.4 µM
Records with an inconclusive call do not appear. Active and inactive are the calls of the source. The call rests on the fitted dose curve; in most records, active means well fitted cell-killing curve with a large enough effect in the repeat runs; inconclusive means weak or mixed curves, or effect the other way; inactive means flat fitted curve, though single readings scatter.
Valid outcomes are listed here; reply with one: active, inactive

Below are worked cases with known answers.
COC(=O)C(C)N(C(=O)Cc1ccccc1)c1c(C)cccc1C (configuration not stated) :: inactive
O=C(O)C(F)(F)C(F)(F)C(F)(F)C(F)(F)C(F)(F)C(F)(F)C(F)(F)C(F)(F)C(F)(F)C(F)(F)F :: inactive
O=C1C(=O)c2cccc3cccc1c23 :: inactive

Ask: I'd appreciate the recorded outcome for CCCCc1c(C)nc(NCC)nc1OS(=O)(=O)N(C)C from this test.
Reply: active

Ask: I'd appreciate the recorded outcome for CCC(Br)(CC)C(=O)NC(N)=O from this test.
Reply: inactive

Ask: I'd appreciate the recorded outcome for CCOC(=O)CBr from this test.
Reply: inactive

Ask: I'd appreciate the recorded outcome for Cn1sc(Cl)cc1=O from this test.
Reply: inactive

Ask: I'd appreciate the recorded outcome for CCBr from this test.
Reply: inactive

Ask: I'd appreciate the recorded outcome for Nc1ccc(N=Nc2ccc(-c3ccc(N=Nc4c(S(=O)(=O)O)cc5cc(S(=O)(=O)O)c(N=Nc6ccccc6)c(O)c5c4N)cc3)cc2)c(N)c1 from this test.
Reply: active

Ask: I'd appreciate the recorded outcome for ClCC(Br)CBr (configuration not stated) from this test.
Reply: inactive

Ask: I'd appreciate the recorded outcome for COP(=S)(OC)Oc1cc(Cl)c(I)cc1Cl from this test.
Reply: inactive

Ask: I'd appreciate the recorded outcome for COC(C)(C)CCC[C@H](C)C/C=C/C(C)=C/C(=O)OC(C)C from this test.
Reply: inactive

====

# STUDY SYSTEM: Bile acid receptor (Homo sapiens) (UniProt Q96RI1)
# Sequence (Q96RI1 whole entry, looked up): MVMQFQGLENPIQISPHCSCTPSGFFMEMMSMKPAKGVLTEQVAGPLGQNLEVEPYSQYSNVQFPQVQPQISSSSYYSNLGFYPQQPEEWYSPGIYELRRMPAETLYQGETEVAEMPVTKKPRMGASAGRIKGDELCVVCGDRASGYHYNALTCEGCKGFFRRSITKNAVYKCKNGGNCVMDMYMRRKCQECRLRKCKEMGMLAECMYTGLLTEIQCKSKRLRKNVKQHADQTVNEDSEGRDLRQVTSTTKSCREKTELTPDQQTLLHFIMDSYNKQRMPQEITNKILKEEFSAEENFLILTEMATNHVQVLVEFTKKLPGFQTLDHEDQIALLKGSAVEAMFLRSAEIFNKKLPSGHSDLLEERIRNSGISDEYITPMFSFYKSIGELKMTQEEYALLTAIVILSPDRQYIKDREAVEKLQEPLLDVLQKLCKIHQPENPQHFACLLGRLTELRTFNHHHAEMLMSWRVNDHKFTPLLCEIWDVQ
# ASSAY: qHTS assay to identify small molecule antagonists of the farnesoid-X-receptor (FXR) signaling pathway (AID 743217)
# CONDITION SUMMARY: HEK293T FXR-UAS-bla, beta-lactamase ratio, CDCA-stimulated, 16 h; series mostly up to 62.6 µM
Inconclusive results are not listed. Calls of active or inactive are those of the source. The call rests on the fitted dose curve; in most records, active means well fitted inhibition curve with a large enough effect in the signal ratio in the repeat runs (not every such curve was filed as active); inconclusive means weak or mixed curves, or effect the other way; inactive means no such curve, though single readings can be large or run the other way; the % refers to the signal ratio.
MEASURED PARAMETER: outcome

Some solved entries appear below for comparison.
O=C(O)C(F)(F)C(F)(F)C(F)(F)C(F)(F)C(F)(F)C(F)(F)C(F)(F)C(F)(F)C(F)(F)C(F)(F)F :: inactive
CCCCCCCCCC(=O)O[C@H]1CC[C@H]2[C@@H]3CCC4=CC(=O)CC[C@@H]4[C@H]3CC[C@]12C :: inactive
O=[Se]=O :: inactive
O=S(=O)(Cl)c1ccccc1 :: inactive
C=CC(=O)OCCCCO :: inactive

Next compound, please.
outcome reported for this compound O=[N+]([O-])c1ccccc1CCl : inactive

The reported measurements were obtained from PubChem BioAssay (Tox21).
